Reference source for all entries: ChEMBL document CHEMBL1201862

# Test system: HCC 2998
# assay_protocol: NCI tumour cell line growth inhibition, 48 h
Activity calls are given as the source filed them. Cut-off read from the data, not from the text of the source: active = GI50 up to about 1.1 µM and inactive = higher.
endpoint: GI50

Example cases with answers are listed next.
NC1c2c(Br)sc(N3CCCC3)c2C(=O)C1O (configuration not stated) | 36.6 µM (inactive)
O=C(CCc1nnc2s/c(=C\c3ccccc3Cl)c(=O)n12)Nc1cc(Cl)ccc1Cl | > 100 µM (inactive)
O=C(O)[C@H](NS(=O)(=O)c1ccc2ccccc2c1)c1ccccc1 | > 100 µM (inactive)

# lookup: GI50 of O=c1[nH]c(S)nc2c1sc(=S)n2-c1ccccc1
> 100 µM (inactive)

# lookup: GI50 of O=c1ccc(=O)c2c(=O)c3ccccc3c(=O)c1=2
54.7 µM (inactive)

----------
# Test system: RPMI-8226
# assay_protocol: NCI tumour cell line growth inhibition, 48 h
Activity calls are given as the source filed them. Rule as the data show it: active = GI50 up to about 1.1 µM and inactive = higher.
Please state which outcome applies, choosing from active, inactive

O=C(O)[C@H](NS(=O)(=O)c1ccc2ccccc2c1)c1ccccc1 | inactive
CC(CCOc1c2ccoc2cc2oc(=O)ccc12)C1=CC(=O)C(C)(C)O1 (stereo not drawn) | inactive
C[n+]1cn(-c2ccc([N+](=O)[O-])cn2)c2ccccc21 | inactive
[O-]/N=[N+](/[O-])C1CCCCC1=[N+]1CCOCC1 (stereo not drawn) | inactive
C[C@]12CC(c3ccccc3O1)C(C(=O)NC13CC4CC(CC(C4)C1)C3)C(=O)N2 (stereo partly drawn) | inactive

Please let me know the test result on file for NS(=O)(=O)c1nnc(NS(=O)(=O)c2cccc3cccnc23)s1 .
inactive

----------
# GI50 values compiled below
# Tested on: UO-31
# assay_protocol: NCI tumour cell line growth inhibition, 48 h
Active and inactive are the calls of the source. Rule as the data show it: active = GI50 up to about 1.1 µM and inactive = higher.

Example cases with answers are listed next.
C/C1=C\CC[C@@]2(C)O[C@@H]2[C@H]2OC(=O)C(C)C2C[C@H]1O (stereo partly specified) | > 100 µM (inactive)
O=C(OCc1ccccc1)C1(N2CN(C3(C(=O)OCc4ccccc4)CCCC3)CN(C3(C(=O)OCc4ccccc4)CCCC3)C2)CCCC1 | > 10 µM (inactive)
O=c1[nH]c(=O)n([C@H]2CCCO2)cc1F | 869 µM (inactive)
O=C(CCCc1ccccn1)c1ccccc1 | > 100 µM (inactive)
CC(C)OP(=O)(OC(C)C)C1=NN(c2ccc([N+](=O)[O-])cc2)C(P(=O)(OC(C)C)OC(C)C)=NN1c1ccc([N+](=O)[O-])cc1 | 95.7 µM (inactive)
CN1N=C(N)c2cn(C3OC(COP(=O)(O)O)C(O)C3O)c3ncnc1c23 (stereo unspecified) | 4.97 µM (inactive)
Nc1ccn(CC(CO)CC(c2ccccc2)P(=O)(O)O)c(=O)n1 (stereo unspecified) | > 100 µM (inactive)
COC(=O)c1ccc2cc(O)c(O)cc2c1 | 17.4 µM (inactive)
COc1cc(/C=C2\C[C@H]3[C@@H]4CC=C5C[C@@H](OC(C)=O)CC[C@]5(C)[C@H]4CC[C@]3(C)\C2=N\O)cc(OC)c1OC | 3.86 µM (inactive)
COC1C(=O)CCC2(CO2)C1(O)C1(C)OC1CC=C(C)C (stereo unspecified) | 28.4 µM (inactive)

# lookup: GI50 of CC(=O)O[C@@H]1CC(C)C2CC2C2=C(C(O)OC2O)[C@@H]1C(C)CCC=C(C)C (stereo partly specified)
22.2 µM (inactive)
